Origin of values: patent US20230019236A1

Molecular target: His tagged full-length PTP1B protein (Homo sapiens, UniProt P18031)
Sequence (P18031 with tags, fused parts or gaps): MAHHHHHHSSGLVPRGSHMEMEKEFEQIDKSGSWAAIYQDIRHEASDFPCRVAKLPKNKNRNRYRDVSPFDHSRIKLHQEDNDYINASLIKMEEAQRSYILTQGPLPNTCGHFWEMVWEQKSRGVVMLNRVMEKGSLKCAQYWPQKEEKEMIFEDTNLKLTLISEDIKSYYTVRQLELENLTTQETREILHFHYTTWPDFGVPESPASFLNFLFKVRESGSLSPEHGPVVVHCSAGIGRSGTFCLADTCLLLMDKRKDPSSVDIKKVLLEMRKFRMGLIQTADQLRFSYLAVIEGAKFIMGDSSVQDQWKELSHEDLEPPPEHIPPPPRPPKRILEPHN
readout_name: IC50

Below are worked cases with known answers.
| smiles_entry | study_system | IC50 |
| --- | --- | --- |
| O=C1CN(c2c(O)cc3ccc(OCCF)cc3c2F)S(=O)(=O)N1 | His tagged full-length PTP1B protein (Homo sapiens, UniProt P18031) | 10 to 100 nM |
| CC(C)(O)CCOc1ccc2c(F)c(N3CC(=O)NS3(=O)=O)c(O)cc2c1 | His tagged full-length PTP1B protein (Homo sapiens, UniProt P18031) | > 100 nM |
| CCNCCCc1ccc2cc(O)c(N3CC(=O)NS3(=O)=O)c(F)c2c1 | His tagged full-length PTP1B protein (Homo sapiens, UniProt P18031) | 10 to 100 nM |
| COc1ccc2cc(O)c(N3CC(=O)NS3(=O)=O)c(F)c2c1F | His tagged full-length PTP1B protein (Homo sapiens, UniProt P18031) | 10 to 100 nM |
| CC(C)CCOc1cc2c(F)c(N3CC(=O)NS3(=O)=O)c(O)cc2cc1O | His tagged full-length PTP1B protein (Homo sapiens, UniProt P18031) | < 1 nM |
| O=C1CN(c2c(O)cc3ccc(C4=CCN(CC(F)(F)F)CC4)cc3c2F)S(=O)(=O)N1 | His tagged full-length PTP1B protein (Homo sapiens, UniProt P18031) | 10 to 100 nM |

Supply IC50 value. Item: CCN(CC)C(=O)COc1ccc2cc(O)c(N3CC(=O)NS3(=O)=O)c(F)c2c1
10 to 100 nM

Note down IC50 recorded for [2H]C([2H])([2H])Oc1ccc2cc(O)c(N3CC(=O)NS3(=O)=O)c(F)c2c1
1 to 10 nM

###

Documented pIC50 across a set of compounds
Biological target: His tagged PTPN2 (TC45) protein (Homo sapiens, UniProt P17706)
Sequence (P17706 with tags, fused parts or gaps isoform P17706-2): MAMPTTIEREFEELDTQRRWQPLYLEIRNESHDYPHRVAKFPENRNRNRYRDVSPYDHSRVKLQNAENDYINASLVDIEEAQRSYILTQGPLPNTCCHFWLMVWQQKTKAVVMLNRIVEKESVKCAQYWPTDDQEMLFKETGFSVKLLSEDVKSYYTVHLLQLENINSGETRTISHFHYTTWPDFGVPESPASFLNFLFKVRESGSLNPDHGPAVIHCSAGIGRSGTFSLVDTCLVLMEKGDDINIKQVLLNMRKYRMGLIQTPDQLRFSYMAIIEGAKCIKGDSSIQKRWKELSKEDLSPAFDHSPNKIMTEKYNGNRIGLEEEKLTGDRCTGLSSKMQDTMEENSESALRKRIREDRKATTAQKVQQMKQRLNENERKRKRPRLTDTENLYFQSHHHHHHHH
pIC50: −log10 of the molar value.

Worked cases, answers included:
| compound | pIC50 |
| --- | --- |
| CC1(CCOc2cc3c(F)c(N4CC(=O)NS4(=O)=O)c(O)cc3cc2O)CC1 [Compound 386] | > 9.00 |
| CC1(O)CN(CCOc2ccc3cc(O)c(N4CC(=O)NS4(=O)=O)c(F)c3c2)C1 [Compound 380] | 8.00 to 9.00 |
| O=C1CN(c2c(O)cc3ccc(CC4CCN(S(=O)(=O)C5CC5)CC4)cc3c2F)S(=O)(=O)N1 [Compound 257] | 8.00 to 9.00 |

Give the reported pIC50 for this compound. CN(CCC#N)CCOc1ccc2cc(O)c(N3CC(=O)NS3(=O)=O)c(F)c2c1 [Compound 389]
8.00 to 9.00

For the compound O=C1CN(c2c(O)cc3cc(O)c(OCCC4CCCC4)cc3c2F)S(=O)(=O)N1 [Compound 364] , give its measured pIC50 value.
> 9.00

Give the reported pIC50 for this compound. CC(C)(C)CCOc1cc2c(F)c(N3CC(=O)NS3(=O)=O)c(O)cc2cc1O [Compound 359]
> 9.00

Read off the recorded pIC50 for O=C1CN(c2c(O)cc3cc(O)c(OCCC4CCC4)cc3c2F)S(=O)(=O)N1 [Compound 362]
> 9.00

Recall and state the measured pIC50 for CC(C)(O)CCOc1ccc2c(F)c(N3CC(=O)NS3(=O)=O)c(O)cc2c1 [Compound 334] .
7.00 to 8.00
